Field: BUN. Provide a value for each of the compounds that follow.
- Species: Rattus norvegicus
- methodSummary: Open TG-GATES - Regimen: Single
- Type: toxicity, organism-based, Sprague-Dawley
- Set-up: regimen Single, gender Male, age 6 weeks
- measurementParameters: in vivo, po, 1000 mg/kg, 9 h, tissue Plasma, route gavage, dose level High
Quick reminder: number only, in mg/dL, skip the unit.

The compound listed as `CNC(=C[N+](=O)[O-])NCCSCc1ccc(CN(C)C)o1` shows BUN equal to 8.8

The compound listed as `O=C(OC[C@H]1O[C@@H](OC(=O)c2cc(O)c(O)c(OC(=O)c3cc(O)c(O)c(O)c3)c2)[C@H](OC(=O)c2cc(O)c(O)c(OC(=O)c3cc(O)c(O)c(O)c3)c2)[C@@H](OC(=O)c2cc(O)c(O)c(OC(=O)c3cc(O)c(O)c(O)c3)c2)[C@@H]1OC(=O)c1cc(O)c(O)c(OC(=O)c2cc(O)c(O)c(O)c2)c1)c1cc(O)c(O)c(OC(=O)c2cc(O)c(O)c(O)c2)c1` shows BUN equal to 12.2

The compound listed as `CN/C(=N/CCSCc1nc[nH]c1C)NC#N` shows BUN equal to 8.2

The compound listed as `Cc1nnc2n1-c1ccc(Cl)cc1C(c1ccccc1Cl)=NC2` shows BUN equal to 9

The compound listed as `COC(=O)C1=C(C)NC(C)=C(C(=O)OC)C1c1ccccc1[N+](=O)[O-]` shows BUN equal to 41.8

* * *

Field: log10 of TBIL. Provide a value for each of the compounds that follow.
- Species: Rattus norvegicus
- methodSummary: Open TG-GATES - Regimen: Daily Repeat
- Format: toxicity, organism-based, Sprague-Dawley
- Set-up: regimen Daily Repeat, gender Male, age 6 weeks
- measurementParameters: in vivo, po, 100 mg/kg, 72 h, tissue Plasma, route gavage, dose level Low, time 3 day
Heads up, the numbers here are log10 of TBIL in mg/dL units.

The compound listed as `CCOc1ccc(NC(C)=O)cc1` shows log10 of TBIL equal to -1.40

The compound listed as `COC(=O)C1=C(C)NC(C)=C(C(=O)OC)C1c1ccccc1[N+](=O)[O-]` shows log10 of TBIL equal to -1.55

The compound listed as `CN/C(=N/CCSCc1nc[nH]c1C)NC#N` shows log10 of TBIL equal to -0.70

The compound listed as `CNC(=C[N+](=O)[O-])NCCSCc1ccc(CN(C)C)o1` shows log10 of TBIL equal to -1.00

The compound listed as `Cc1nnc2n1-c1ccc(Cl)cc1C(c1ccccc1Cl)=NC2` shows log10 of TBIL equal to -1.27

The compound listed as `O=C(OC[C@H]1O[C@@H](OC(=O)c2cc(O)c(O)c(OC(=O)c3cc(O)c(O)c(O)c3)c2)[C@H](OC(=O)c2cc(O)c(O)c(OC(=O)c3cc(O)c(O)c(O)c3)c2)[C@@H](OC(=O)c2cc(O)c(O)c(OC(=O)c3cc(O)c(O)c(O)c3)c2)[C@@H]1OC(=O)c1cc(O)c(O)c(OC(=O)c2cc(O)c(O)c(O)c2)c1)c1cc(O)c(O)c(OC(=O)c2cc(O)c(O)c(O)c2)c1` shows log10 of TBIL equal to -0.52

* * *

Field: Ht. Provide a value for each of the compounds that follow.
- Organism: Rattus norvegicus
- methodSummary: Open TG-GATES - Regimen: Daily Repeat
- Type: toxicity, organism-based, Sprague-Dawley
- Design: regimen Daily Repeat, gender Male, age 6 weeks
- measurementParameters: in vivo, po, 300 mg/kg, 72 h, tissue Blood, route gavage, dose level Middle, time 3 day
Quick reminder: number only, in %, skip the unit.

The compound listed as `Cc1nnc2n1-c1ccc(Cl)cc1C(c1ccccc1Cl)=NC2` shows Ht equal to 41.2

The compound listed as `COC(=O)C1=C(C)NC(C)=C(C(=O)OC)C1c1ccccc1[N+](=O)[O-]` shows Ht equal to 41.7

The compound listed as `CCOc1ccc(NC(C)=O)cc1` shows Ht equal to 40.7

The compound listed as `CNC(=C[N+](=O)[O-])NCCSCc1ccc(CN(C)C)o1` shows Ht equal to 39.4

The compound listed as `CN/C(=N/CCSCc1nc[nH]c1C)NC#N` shows Ht equal to 39.2

The compound listed as `O=C(OC[C@H]1O[C@@H](OC(=O)c2cc(O)c(O)c(OC(=O)c3cc(O)c(O)c(O)c3)c2)[C@H](OC(=O)c2cc(O)c(O)c(OC(=O)c3cc(O)c(O)c(O)c3)c2)[C@@H](OC(=O)c2cc(O)c(O)c(OC(=O)c3cc(O)c(O)c(O)c3)c2)[C@@H]1OC(=O)c1cc(O)c(O)c(OC(=O)c2cc(O)c(O)c(O)c2)c1)c1cc(O)c(O)c(OC(=O)c2cc(O)c(O)c(O)c2)c1` shows Ht equal to 39.3

* * *

- Species on record: Rattus norvegicus
- methodSummary: Open TG-GATES - Regimen: Single
- Type: toxicity, organism-based, Sprague-Dawley
- Parameters: regimen Single, gender Male, age 6 weeks
- measurementParameters: in vivo, po, 1000 mg/kg, 3 h, tissue Blood, route gavage, dose level High
Field: PT. Provide a value for each of the molecules that follow.
Quick reminder: number only, in s, skip the unit.

The molecule listed as `COC(=O)C1=C(C)NC(C)=C(C(=O)OC)C1c1ccccc1[N+](=O)[O-]` shows PT equal to 14.9

The molecule listed as `Cc1nnc2n1-c1ccc(Cl)cc1C(c1ccccc1Cl)=NC2` shows PT equal to 13.4

The molecule listed as `O=C(OC[C@H]1O[C@@H](OC(=O)c2cc(O)c(O)c(OC(=O)c3cc(O)c(O)c(O)c3)c2)[C@H](OC(=O)c2cc(O)c(O)c(OC(=O)c3cc(O)c(O)c(O)c3)c2)[C@@H](OC(=O)c2cc(O)c(O)c(OC(=O)c3cc(O)c(O)c(O)c3)c2)[C@@H]1OC(=O)c1cc(O)c(O)c(OC(=O)c2cc(O)c(O)c(O)c2)c1)c1cc(O)c(O)c(OC(=O)c2cc(O)c(O)c(O)c2)c1` shows PT equal to 11.9

The molecule listed as `CN/C(=N/CCSCc1nc[nH]c1C)NC#N` shows PT equal to 13.1

The molecule listed as `CNC(=C[N+](=O)[O-])NCCSCc1ccc(CN(C)C)o1` shows PT equal to 12.5

* * *

- Organism: Rattus norvegicus
- methodSummary: Open TG-GATES - Regimen: Single
- Assay type: toxicity, organism-based, Sprague-Dawley
- Parameters: regimen Single, gender Male, age 6 weeks
- measurementParameters: in vivo, po, 300 mg/kg, 6 h, tissue Blood, route gavage, dose level Middle
reportedProperty: Plat (x10_4/uL)
Quick reminder: number only, in x10_4/uL, skip the unit.

The compound listed as `COC(=O)C1=C(C)NC(C)=C(C(=O)OC)C1c1ccccc1[N+](=O)[O-]` shows Plat equal to 123.8

The compound listed as `CN/C(=N/CCSCc1nc[nH]c1C)NC#N` shows Plat equal to 134.4

The compound listed as `Cc1nnc2n1-c1ccc(Cl)cc1C(c1ccccc1Cl)=NC2` shows Plat equal to 123.3

The compound listed as `CNC(=C[N+](=O)[O-])NCCSCc1ccc(CN(C)C)o1` shows Plat equal to 119.8

The compound listed as `O=C(OC[C@H]1O[C@@H](OC(=O)c2cc(O)c(O)c(OC(=O)c3cc(O)c(O)c(O)c3)c2)[C@H](OC(=O)c2cc(O)c(O)c(OC(=O)c3cc(O)c(O)c(O)c3)c2)[C@@H](OC(=O)c2cc(O)c(O)c(OC(=O)c3cc(O)c(O)c(O)c3)c2)[C@@H]1OC(=O)c1cc(O)c(O)c(OC(=O)c2cc(O)c(O)c(O)c2)c1)c1cc(O)c(O)c(OC(=O)c2cc(O)c(O)c(O)c2)c1` shows Plat equal to 112.5

* * *

Field: LIVER. Provide a value for each of the compounds that follow.
- Organism: Rattus norvegicus
- methodSummary: Open TG-GATES - Regimen: Single
- Assay type: toxicity, organism-based, Sprague-Dawley
- Parameters: regimen Single, gender Male, age 6 weeks
- measurementParameters: in vivo, po, 1000 mg/kg, 3 h, tissue Liver, route gavage, dose level High
Quick reminder: number only, in g, skip the unit.

The compound listed as `Cc1nnc2n1-c1ccc(Cl)cc1C(c1ccccc1Cl)=NC2` shows LIVER equal to 8.3

The compound listed as `CNC(=C[N+](=O)[O-])NCCSCc1ccc(CN(C)C)o1` shows LIVER equal to 10.5

The compound listed as `O=C(OC[C@H]1O[C@@H](OC(=O)c2cc(O)c(O)c(OC(=O)c3cc(O)c(O)c(O)c3)c2)[C@H](OC(=O)c2cc(O)c(O)c(OC(=O)c3cc(O)c(O)c(O)c3)c2)[C@@H](OC(=O)c2cc(O)c(O)c(OC(=O)c3cc(O)c(O)c(O)c3)c2)[C@@H]1OC(=O)c1cc(O)c(O)c(OC(=O)c2cc(O)c(O)c(O)c2)c1)c1cc(O)c(O)c(OC(=O)c2cc(O)c(O)c(O)c2)c1` shows LIVER equal to 8.5

The compound listed as `COC(=O)C1=C(C)NC(C)=C(C(=O)OC)C1c1ccccc1[N+](=O)[O-]` shows LIVER equal to 8.4

The compound listed as `CN/C(=N/CCSCc1nc[nH]c1C)NC#N` shows LIVER equal to 9.8

These entries and their values trace back to ChEMBL document CHEMBL3885861.
